Ref: patent US20230219886A1

Test system: HCT-116 CRC cells
Test: MTT cell viability assay, HCT-116
Assay type: cell-based, human
Details: HCT-116, 24 h; read-out: IC50
Experimental: Cell Culture Conditions. The cell lines were obtained from the American Type Culture Collection (ATCC). […] Cell Viability Assay. […] The resultant formazan crystals were dissolved in 50 μL of DMSO, and absorbance was measured at 570 nm and 630 nm wavelengths. IC50, GI50, TGI and LC50 values were calculated using OriginPro 8.5.1.
Recorded metric: IC50 (µM)
Number only, in µM; omit the unit.

Please provide the recorded IC50 for C[Se]C(=O)CC1=C(C)/C(=C/c2ccc([S+](C)[O-])cc2)c2ccc(F)cc21 (stereo not shown) , tested on HCT-116 CRC cells.
7.3

----------
System: HT-29 (CRC)
Test: MTT cell viability assay, HT-29
Settings: HT-29, 72 h
Recorded metric: pIC50
Remember the convention: pIC50 equals -log10 of concentration in molar.

Requested read-out: pIC50. Entry: C[Se]C(=O)CC1=C(C)/C(=C/c2ccc([S+](C)[O-])cc2)c2ccc(F)cc21 (stereo not shown) [Compound 6a]
5.85

----------
Tested on: H1299 (lung carcinoma)
Experiment: MTT cell viability assay, H1299
Details: Homo sapiens, NCI-H1299, 48 h, read-out: cell viability
Measured viability at 5 µM accompanies every entry in the list below.
Number only, in %; omit the unit.

COc1ccc2c(c1)c(CC(=O)[Se]C)c(C)n2C(=O)c1ccc(Cl)cc1 :: 49.5
C[Se]C(=O)c1ccccc1Nc1cccc(C)c1C :: 98.7

Requested read-out: viability at 5 µM. Entry: COc1ccc2cc([C@H](C)C(=O)[Se]C)ccc2c1
48.3

Requested read-out: viability at 5 µM. Entry: CC1=C(CC(=O)O)c2cc(F)ccc2/C1=C\c1ccc([S+](C)[O-])cc1 (stereo not shown) [Sulin, sulindac, reference compound]
87.5

Requested read-out: viability at 5 µM. Entry: COc1ccc2c(c1)c(CC(=O)O)c(C)n2C(=O)c1ccc(Cl)cc1 [Inn, indomethacin, reference compound]
76

Requested read-out: viability at 5 µM. Entry: Cc1cccc(Nc2ccccc2C(=O)O)c1C [Mf, mefenamic acid, reference compound]
71.4

Requested read-out: viability at 5 µM. Entry: C[Se]C(=O)c1ccccc1OC(C)=O
48.7

Requested read-out: viability at 5 µM. Entry: CC(=O)Oc1ccccc1C(=O)O [ASA, aspirin, reference compound]
44.1

Requested read-out: viability at 5 µM. Entry: C[Se]C(=O)c1cc(-c2ccc(F)cc2F)ccc1O
96.8

Requested read-out: viability at 5 µM. Entry: O=C(O)c1cc(-c2ccc(F)cc2F)ccc1O [Dfl, diflunisal, reference compound]
85.2

----------
System: RKO CRC cells
Assay: cells
Details: Homo sapiens, 24 h
Recorded metric: IC50

For orientation, consider the following solved cases.
COc1ccc2c(c1)c(CC(=O)[Se]C)c(C)n2C(=O)c1ccc(Cl)cc1 :: > 50 µM
CC(=O)Oc1ccccc1C(=O)[Se]Cc1ccccc1 :: > 50 µM

Proceed to the following item.
Requested read-out: IC50. Entry: CC1=C(CC(=O)O)c2cc(F)ccc2/C1=C\c1ccc([S+](C)[O-])cc1 (stereo not drawn) [Sulin, sulindac, reference compound]
> 50 µM
